# target-or-system: human A2A receptor (Homo sapiens, UniProt P29274)
# Sequence (P29274 whole entry): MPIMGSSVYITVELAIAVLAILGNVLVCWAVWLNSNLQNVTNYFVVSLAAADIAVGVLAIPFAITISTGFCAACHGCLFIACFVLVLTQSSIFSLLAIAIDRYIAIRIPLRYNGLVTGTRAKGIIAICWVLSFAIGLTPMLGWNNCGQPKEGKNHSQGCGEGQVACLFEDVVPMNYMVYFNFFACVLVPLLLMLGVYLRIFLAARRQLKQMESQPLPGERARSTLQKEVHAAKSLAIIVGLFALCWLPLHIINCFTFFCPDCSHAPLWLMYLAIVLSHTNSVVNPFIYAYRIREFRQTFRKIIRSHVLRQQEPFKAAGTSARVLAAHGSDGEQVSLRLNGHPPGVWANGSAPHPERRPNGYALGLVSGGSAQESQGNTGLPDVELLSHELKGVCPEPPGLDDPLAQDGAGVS
# measurement-description: functional cAMP (HTRF) assay, recombinant HEK293 cells expressing human A2A receptor, agonist NECA
endpoint: IC50

# example entries with known answers
May I ask what IC50 has been recorded for COc1ccc(C2CCOCC2)c2nc(NC(=O)NCc3nccs3)[nH]c12 ? < 0.1 µM

Try COc1ccc(-c2cnn(C)c2)c2nc(NC(=O)c3ccc(C(=O)N(C)C)cc3)[nH]c12 next. < 0.01 µM

Try COc1ccc(-c2ccc3cc[nH]c3c2)c2nc(NC(=O)N3CCC(C)(O)CC3)[nH]c12 next. < 0.1 µM

Try COCCn1cc(C(=O)Nc2nc3c(-c4ccc5[nH]ccc5c4)ccc(OC)c3[nH]2)cn1 next. < 0.1 µM

Try COc1ccc(-c2ccncc2)c2nc(NC(=O)N3CCC4(COC4)C3)[nH]c12 next. < 0.1 µM

Try COc1ccc(-c2ccccc2)c2nc(NC(=O)c3cnn(C)c3)[nH]c12 next. < 0.1 µM

Try COc1ccc(-c2ccc3[nH]ccc3c2)c2nc(NC(=O)N3CCC(C)(O)CC3)[nH]c12 next. < 0.1 µM

Others:
May I ask what IC50 has been recorded for COc1ccc(C2CCOCC2)c2nc(NC(=O)c3cnc(C)s3)[nH]c12 ? < 0.01 µM

* * *

# target-or-system: human A3 receptor (Homo sapiens, UniProt P0DMS8)
# Sequence (P0DMS8 whole entry): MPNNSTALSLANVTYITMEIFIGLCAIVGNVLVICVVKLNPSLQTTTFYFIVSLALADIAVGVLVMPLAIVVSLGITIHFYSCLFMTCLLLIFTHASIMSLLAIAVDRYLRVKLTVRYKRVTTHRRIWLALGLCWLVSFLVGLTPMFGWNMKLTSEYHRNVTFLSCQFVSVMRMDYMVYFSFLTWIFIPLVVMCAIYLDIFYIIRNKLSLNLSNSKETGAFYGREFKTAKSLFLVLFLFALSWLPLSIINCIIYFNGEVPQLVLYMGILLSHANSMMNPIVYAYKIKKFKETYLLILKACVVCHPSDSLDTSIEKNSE
# measurement-description: functional cAMP (HTRF) assay, recombinant CHO cells expressing human A3 receptor, forskolin, agonist IB-MECA
endpoint: IC50

# example entries with known answers
May I ask what IC50 has been recorded for COc1ccc(C2CCOCC2)c2nc(NC(=O)c3cnn(C)c3)[nH]c12 [compound 224] ? < 1000 nM

Try COCCOCCn1cc(-c2ccc(OC)c3nc(NC(=O)N4CCC(C)(O)CC4)[nH]c23)cn1 [compound 230] next. > 1000 nM

Try COc1ccc(C2CCCCC2)c2nc(NC(=O)N3CCC(C)(O)CC3)[nH]c12 [compound 16] next. < 1000 nM

Try COCCn1cc(C(=O)Nc2nc3c(-c4cnn(C)c4)ccc(OC)c3[nH]2)cn1 [compound 161] next. < 1000 nM

Try COc1ccc(-c2cnn(C3CN(C(=O)OC(C)(C)C)C3)c2)c2[nH]c(NC(=O)N3CCC(C)(O)CC3)nc12 [compound 245] next. > 1000 nM

Try COc1ccc(C2CCOCC2)c2nc(NC(=O)c3cnc(C)o3)[nH]c12 [compound 234] next. < 1000 nM

Proceed to the following item.
May I ask what IC50 has been recorded for COc1ccc(-c2cnn(CC(C)(C)O)c2)c2[nH]c(NC(=O)N3CCC(C)(O)CC3)nc12 [compound 238] ? > 1000 nM

* * *

Items are presented alongside their recorded IC50.
# target-or-system: human A3 receptor (Homo sapiens)
# measurement-description: functional cAMP (HTRF) assay, recombinant CHO cells expressing human A3 receptor, forskolin, agonist IB-MECA

# example entries with known answers
May I ask what IC50 has been recorded for COc1ccc(-c2cnn(C)c2)c2nc(NC(=O)c3ccc(Cn4ccnc4)cc3)[nH]c12 ? < 1 µM

Try COCCOc1cccc(-c2ccc(OC)c3nc(NC(=O)N4CCC(C)(O)CC4)[nH]c23)c1 next. < 1 µM

Try COc1ccc(-c2cnn(-c3ccccn3)c2)c2[nH]c(NC(=O)N3CCC(C)(O)CC3)nc12 next. < 1 µM

Proceed to the following item.
May I ask what IC50 has been recorded for COc1ccc(C2CCOCC2)c2nc(NC(=O)N3CC[C@@]4(CCOC4)C3)[nH]c12 ? > 1 µM
